Below: a set of entries, each annotated with reported Avg.
biological target: SARS-CoV-2 3CL protease (Severe acute respiratory syndrome coronavirus 2, UniProt P0DTD1); assay type: biochemical; design: unit not given here; settings: Conc 20 µM
Please respond with just the number, no unit label.

The examples below pair each entry with its known result.
- molecule: "CCNC(=O)N1CCC(NC(=O)c2cccnc2S)C1 (centres unmarked)"
  observedProperty: "Avg"
  numericReadout: 18.3
- molecule: "O=C(NCc1ncccc1F)c1cccnc1S"
  observedProperty: "Avg"
  numericReadout: 94.7

Note to self: Avg recorded for O=C(NCC1CCCCC1O)c1cccnc1S (centres unmarked) was 33.5

Note to self: Avg recorded for "O=C(NCc1ccc(F)c(CO)c1)c1cccnc1S" was 50.8

Note to self: Avg recorded for "Cc1cc(C(=O)CCl)c(C)n1-c1ccccn1" was 61.2

Note to self: Avg recorded for "O=C(CCl)NC(=O)OCc1ccccc1" was 51.1

Note to self: Avg recorded for CCC(=O)N1CCC(NC(=O)c2cccnc2S)C1 (centres unmarked) was 20.9

---

biological target: SARS-CoV-2 3CL protease (Severe acute respiratory syndrome coronavirus 2); assay type: biochemical; details: log of IC50 (µM), dose-response curve fit, Figure S1 and S2
observedProperty: LogIC50
Please respond with just the number, no unit label.

- compound: "NC(=O)CCc1ccc(C(=O)CCl)cc1"
  LogIC50: 1.341
- compound: "Cc1cc(C(=O)CCl)c(C)n1-c1ccccn1"
  LogIC50: 1.197

Fill in: SARS-CoV-2 3CL protease (Severe acute respiratory syndrome coronavirus 2) LogIC50 for CCC(=O)N1CCC(NC(=O)c2cccnc2S)C1 (centres unmarked) = 1.626

Fill in: SARS-CoV-2 3CL protease (Severe acute respiratory syndrome coronavirus 2) LogIC50 for "Cc1nc(CCNC(=O)c2cccnc2S)sc1C" = 1.319

Fill in: SARS-CoV-2 3CL protease (Severe acute respiratory syndrome coronavirus 2) LogIC50 for O=C(NCCC(O)c1ccccc1)c1cccnc1S (centres unmarked) = 1.3058

Fill in: SARS-CoV-2 3CL protease (Severe acute respiratory syndrome coronavirus 2) LogIC50 for O=C(NCC1CCCCC1O)c1cccnc1S (centres unmarked) = 1.406

---

biological target: SARS-CoV-2 3CL protease (Severe acute respiratory syndrome coronavirus 2); assay type: biochemical; parameters: unit not given here; conditions: Conc 100 µM
hey, just use yes if measured Avg is less than 100, otherwise no

Worked cases, answers included:
- molecule: "CCNC(=O)N1CCC(NC(=O)c2cccnc2S)C1 (centres unmarked)"
  cat: "no"
- molecule: "COC1(CNC(=O)c2cccnc2S)CCOCC1"
  cat: "yes"
- molecule: "COC(C)(C)CNC(=O)c1cccnc1S"
  cat: "yes"
- molecule: "O=C(NCC(CO)c1ccccc1)c1cccnc1S (centres unmarked)"
  cat: "yes"
- molecule: "CC(C)OC1CCC(NC(=O)c2cccnc2S)CC1 (centres unmarked)"
  cat: "yes"

QUERY: Problem: For the molecule "Cc1nc(CCNC(=O)c2cccnc2S)sc1C" , is Avg under 100?
RESULT: no

QUERY: Problem: For the molecule "Cn1cc(CNC(=O)c2cccnc2S)c(C(F)(F)F)n1" , is Avg under 100?
RESULT: no

---

target: UniProtKB P0DTD1; assay type: biochemical; design: unit not given here; conditions: Conc 50 µM; mean response (inhibition) of dose-response curve
Below: a set of entries, each annotated with reported Avg.
Please respond with just the number, no unit label.

The examples below pair each entry with its known result.
- compound: "NC(=O)c1csc(C(=O)CCl)c1"
  targetUnderTest: "UniProtKB P0DTD1"
  numericReadout: 47.6
- compound: "CCN(c1ccc(C(=O)CCl)cc1)S(C)(=O)=O"
  targetUnderTest: "UniProtKB P0DTD1"
  numericReadout: 58.2
- compound: "Cc1cc(C(=O)CCl)c(C)n1-c1ncn[nH]1"
  targetUnderTest: "UniProtKB P0DTD1"
  numericReadout: 75.5

Note to self: Avg recorded for "O=C(CCl)N1CCN(Cc2ccsc2)CC1" was 63.6

Note to self: Avg recorded for "O=C(CCl)c1ccc(F)c(C(=O)CCl)c1" was 48.5

---

target: SARS-CoV-2 3CL protease (Severe acute respiratory syndrome coronavirus 2); type: biochemical; parameters: unit not given here; conditions: Conc 15 µM
hey, just use y if measured Avg is less than 20, otherwise n

- molecule: "O=C(CCl)NC(=O)OCc1ccccc1 [Z108566700]"
  targetUnderTest: "SARS-CoV-2 3CL protease (Severe acute respiratory syndrome coronavirus 2)"
  cat: "n"
- molecule: "COC(C)(C)CNC(=O)c1cccnc1S [Z1274680193]"
  targetUnderTest: "SARS-CoV-2 3CL protease (Severe acute respiratory syndrome coronavirus 2)"
  cat: "n"
- molecule: "CC(C)Cc1ncc(CNC(=O)c2cccnc2S)s1 [Z1494348106]"
  targetUnderTest: "SARS-CoV-2 3CL protease (Severe acute respiratory syndrome coronavirus 2)"
  cat: "n"
- molecule: "O=C(NCC1CCCCC1O)c1cccnc1S (centres unmarked) [Z1252265470]"
  targetUnderTest: "SARS-CoV-2 3CL protease (Severe acute respiratory syndrome coronavirus 2)"
  cat: "n"
- molecule: "Cc1nc(CCNC(=O)c2cccnc2S)sc1C [Z1432661577]"
  targetUnderTest: "SARS-CoV-2 3CL protease (Severe acute respiratory syndrome coronavirus 2)"
  cat: "y"

QUERY: Problem: For the molecule O=C(NCc1ncccc1F)c1cccnc1S [Z1499268500] , is Avg under 20?
RESULT: n

QUERY: Problem: For the molecule Cc1cc(C(=O)CCl)c(C)n1-c1ccccn1 [Z126674012] , is Avg under 20?
RESULT: n

QUERY: Problem: For the molecule O=C(NCC(CO)c1ccccc1)c1cccnc1S (centres unmarked) [Z1346056045] , is Avg under 20?
RESULT: y

QUERY: Problem: For the molecule CC(C)OC1CCC(NC(=O)c2cccnc2S)CC1 (centres unmarked) [Z1500153099] , is Avg under 20?
RESULT: y

QUERY: Problem: For the molecule NC(=O)CCc1ccc(C(=O)CCl)cc1 [Z1203664423] , is Avg under 20?
RESULT: n

QUERY: Problem: For the molecule O=C(NCC1(O)CCc2ccccc21)c1cccnc1S (centres unmarked) [Z1501256406] , is Avg under 20?
RESULT: n

---

target: SARS-CoV-2 3CL protease (Severe acute respiratory syndrome coronavirus 2, UniProt P0DTD1); assay type: biochemical; parameters: unit not given here; conditions: Conc 10 µM
observedProperty: Avg

- molecule: "O=C(NCCC(O)c1ccccc1)c1cccnc1S (centres unmarked)"
  targetUnderTest: "SARS-CoV-2 3CL protease (Severe acute respiratory syndrome coronavirus 2, UniProt P0DTD1)"
  Avg: 12.5
- molecule: "O=C(CCl)NC(=O)OCc1ccccc1"
  targetUnderTest: "SARS-CoV-2 3CL protease (Severe acute respiratory syndrome coronavirus 2, UniProt P0DTD1)"
  Avg: 22.2
- molecule: "Cc1cc(C(=O)CCl)c(C)n1-c1ccccn1"
  targetUnderTest: "SARS-CoV-2 3CL protease (Severe acute respiratory syndrome coronavirus 2, UniProt P0DTD1)"
  Avg: 35.8

Note to self: Avg recorded for CC(C)OC1CCC(NC(=O)c2cccnc2S)CC1 (centres unmarked) was 2.2

Note to self: Avg recorded for "O=C(NCc1ncccc1F)c1cccnc1S" was 17.2

Note to self: Avg recorded for "Cc1nc(CCNC(=O)c2cccnc2S)sc1C" was 10.2

Note to self: Avg recorded for O=C(NCC(CO)c1ccccc1)c1cccnc1S (centres unmarked) was 2.4

Note to self: Avg recorded for CCNC(=O)N1CCC(NC(=O)c2cccnc2S)C1 (centres unmarked) was 3.7

Note to self: Avg recorded for O=C(NCC1(O)CCc2ccccc21)c1cccnc1S (centres unmarked) was 55.2

Note to self: Avg recorded for "O=C(NCc1ccc(F)c(CO)c1)c1cccnc1S" was 26.5

Note to self: Avg recorded for "COC(C)(C)CNC(=O)c1cccnc1S" was 27.3

Note to self: Avg recorded for "COC1(CNC(=O)c2cccnc2S)CCOCC1" was -6.5

Note to self: Avg recorded for "Cn1cc(CNC(=O)c2cccnc2S)c(C(F)(F)F)n1" was 2.1

Note to self: Avg recorded for "CC(C)Cc1ncc(CNC(=O)c2cccnc2S)s1" was 3.5

Note to self: Avg recorded for CCC(=O)N1CCC(NC(=O)c2cccnc2S)C1 (centres unmarked) was 24.1

Note to self: Avg recorded for "NC(=O)CCc1ccc(C(=O)CCl)cc1" was 21.6

Note to self: Avg recorded for O=C(NCC1CCCCC1O)c1cccnc1S (centres unmarked) was -0.7

---

Below: a set of entries, each annotated with reported Inhibition at 100 µM.
target: SARS-CoV-2 3CL protease (Severe acute respiratory syndrome coronavirus 2, UniProt P0DTD1); type: biochemical; settings: 100 µM compound
State just the number; it will be interpreted in %.

- compound: "O=C(CCl)c1csc(N2CCCCC2)n1"
  Inhibition at 100 µM (%): 100
- compound: "CSc1cc(C(=O)CCl)ccc1NC(C)=O"
  Inhibition at 100 µM (%): 95
- compound: "CC1C(=O)Nc2ccc(C(=O)CCl)cc21 (centres unmarked)"
  Inhibition at 100 µM (%): 85

// next item, Inhibition at 100 µM requested
Note to self: Inhibition at 100 µM recorded for "CCN(c1ccc(C(=O)CCl)cc1)S(C)(=O)=O" was 84
